- study_system: [^3 H]-Spiroperidol Binding (Homo sapiens)
- Construct: receptor assay described by D. Grigoriadis and P. Seeman, Journal of Neurochemistry, Volume 44, pages 1925-1935 (1985); from tissue
- Sequence (P14416 whole entry): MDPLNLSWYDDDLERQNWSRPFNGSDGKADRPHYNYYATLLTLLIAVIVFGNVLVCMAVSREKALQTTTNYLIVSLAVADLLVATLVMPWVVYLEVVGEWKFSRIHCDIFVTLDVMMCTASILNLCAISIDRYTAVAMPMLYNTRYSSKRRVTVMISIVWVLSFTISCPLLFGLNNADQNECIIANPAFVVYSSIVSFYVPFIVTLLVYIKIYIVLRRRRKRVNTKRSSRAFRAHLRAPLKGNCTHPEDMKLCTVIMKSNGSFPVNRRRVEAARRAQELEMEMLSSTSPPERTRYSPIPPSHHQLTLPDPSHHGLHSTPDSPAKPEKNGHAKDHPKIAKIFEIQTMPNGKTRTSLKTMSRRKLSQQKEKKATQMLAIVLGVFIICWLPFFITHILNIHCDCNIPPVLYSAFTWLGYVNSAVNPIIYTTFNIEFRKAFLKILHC
- procedure_details: Inhibition of [^3 H]-spiroperidol binding in a receptor assay
- conditions: read-out: Inhibition of [^3 H]-Spiroperidol Binding IC50
pIC50: −log10 of the molar value.
metric: pIC50

INSERT INTO measurements (compound, study_system, metric, numeric_readout) VALUES
  ('OC1(c2nccs2)CCC(CCN2CCN(c3ccccn3)CC2)CC1 (stereo not shown)', '[^3 H]-Spiroperidol Binding (Homo sapiens)', 'pIC50', 5.81),
  ('O=C(N[C@H]1CC[C@H](N2CC=C(c3ccccc3)CC2)CC1)C1CCCCC1', '[^3 H]-Spiroperidol Binding (Homo sapiens)', 'pIC50', 5.80),
  ('OC1(c2ccsc2)CCC(CCN2CCN(c3ccccn3)CC2)CC1 (stereo not shown)', '[^3 H]-Spiroperidol Binding (Homo sapiens)', 'pIC50', 6.51),
  ('COc1ccc(C2(O)CCC(N3CCN(c4ccccn4)CC3)CC2)cc1 (stereo not shown)', '[^3 H]-Spiroperidol Binding (Homo sapiens)', 'pIC50', 6.17),
  ('OC1(c2ccccn2)CCC(N2CCN(c3ccccn3)CC2)CC1 (stereo not shown)', '[^3 H]-Spiroperidol Binding (Homo sapiens)', 'pIC50', 5.56),
  ('OC1(c2ccccc2)CCC(N2CCN(c3ccccn3)CC2)CC1 (stereo not shown)', '[^3 H]-Spiroperidol Binding (Homo sapiens)', 'pIC50', 5.78),
  ('OC1(c2ccsc2)CCC(N2CCN(c3ccccn3)CC2)CC1 (stereo not shown)', '[^3 H]-Spiroperidol Binding (Homo sapiens)', 'pIC50', 5.57),
  ('OC1(c2cccnc2)CCC(N2CCN(c3ccccn3)CC2)CC1 (stereo not shown) [Example 22]', '[^3 H]-Spiroperidol Binding (Homo sapiens)', 'pIC50', 4.90),
  ('OC1(c2cccnc2)CCC(CCN2CCN(c3ccccn3)CC2)CC1 (stereo not shown)', '[^3 H]-Spiroperidol Binding (Homo sapiens)', 'pIC50', 6.07),
  ('COc1ccc(C2(O)CCC(CCN3CCN(c4ccccn4)CC3)CC2)cc1 (stereo not shown) [Example 8]', '[^3 H]-Spiroperidol Binding (Homo sapiens)', 'pIC50', 6.77),
  ('O=C(N[C@H]1CC[C@@H](CCN2CC=C(c3ccccc3)CC2)CC1)c1cccs1', '[^3 H]-Spiroperidol Binding (Homo sapiens)', 'pIC50', 6.55),
  ('OC1(c2ccccc2)CCC(CCN2CCN(c3ccccn3)CC2)CC1 (stereo not shown)', '[^3 H]-Spiroperidol Binding (Homo sapiens)', 'pIC50', 6.27),
  ('O=C(N[C@H]1CC[C@H](N2CCN(c3ccccn3)CC2)CC1)c1ccc(Cl)cc1', '[^3 H]-Spiroperidol Binding (Homo sapiens)', 'pIC50', 5.11),
  ('OC1(c2cccnc2)CCC(CCN2CC=C(c3ccccc3)CC2)CC1 (stereo not shown)', '[^3 H]-Spiroperidol Binding (Homo sapiens)', 'pIC50', 6.94),
  ('OC1(c2cccs2)CCC(CN2CCN(c3ccccn3)CC2)CC1 (stereo not shown)', '[^3 H]-Spiroperidol Binding (Homo sapiens)', 'pIC50', 5.41),
  ('OC1(c2cccs2)CCC(CCN2CCN(c3ccccn3)CC2)CC1 (stereo not shown) [Example 4]', '[^3 H]-Spiroperidol Binding (Homo sapiens)', 'pIC50', 6.47),
  ('O=C(N[C@H]1CC[C@H](N2CC=C(c3ccccc3)CC2)CC1)c1ccccc1', '[^3 H]-Spiroperidol Binding (Homo sapiens)', 'pIC50', 6.44),
  ('OC1(c2ccccn2)CCC(CCN2CC=C(c3ccccc3)CC2)CC1 (stereo not shown)', '[^3 H]-Spiroperidol Binding (Homo sapiens)', 'pIC50', 6.81),
  ('COc1ccc(C2(O)CCC(CCN3CCN(c4ccccn4)CC3)CC2)cc1 (stereo not shown) [Example 15]', '[^3 H]-Spiroperidol Binding (Homo sapiens)', 'pIC50', 6.03);
